METHOD: Antiproliferative activity against p53-expressing human HCT116 cells assessed as cell viability after 72 hrs by SRB assay
Assay type: functional, cell-based
EXPERIMENTAL CONDITIONS: HCT-116, 72 h
pIC50: −log10 of the molar value.
READOUT KIND: pIC50

smiles_structure=O=C/C=C/c1ccc2c(c1)O[C@@H](CO)[C@H](c1ccc(O)c(O)c1)O2 reported_result=5.08

----------
Test system: RKO
METHOD: Antiproliferative activity against human RKO cells after 24 to 72 hrs by SRB assay
Format: functional, cell-based
pIC50: −log10 of the molar value.
Collected pIC50 values appear next to each entry.
READOUT KIND: pIC50

smiles_structure=CCc1c2c(nc3ccc(OC(=O)N4CCC(N5CCCCC5)CC4)cc13)-c1cc3c(c(=O)n1C2)COC(=O)[C@]3(O)CC readout_kind=pIC50 reported_result=5.21
smiles_structure=O=C/C=C/c1ccc2c(c1)O[C@@H](CO)[C@H](c1ccc(O)c(O)c1)O2 readout_kind=pIC50 reported_result=4.61

----------
METHOD: Antiproliferative activity against p53-null human HCT116 cells assessed as cell viability after 72 hrs by SRB assay
Type: functional, cell-based
EXPERIMENTAL CONDITIONS: HCT-116, 72 h
pIC50: −log10 of the molar value.
READOUT KIND: pIC50

molecule="COc1cc([C@@H]2c3cc4c(cc3[C@@H](O[C@@H]3O[C@@H]5CO[C@@H](C)O[C@H]5[C@H](O)[C@H]3O)[C@H]3COC(=O)[C@H]23)OCO4)cc(OC)c1O [ETOPOSIDE]" readout_kind=pIC50 reported_result=5.51
molecule=O=C/C=C/c1ccc2c(c1)O[C@@H](CO)[C@H](c1ccc(O)c(O)c1)O2 readout_kind=pIC50 reported_result=5.11

----------
System: A549
METHOD: Antiproliferative activity against human A549 cells after 24 to 72 hrs by SRB assay
Type: functional, cell-based
pIC50: −log10 of the molar value.
Collected pIC50 values appear next to each entry.
READOUT KIND: pIC50

molecule="COc1cc([C@@H]2c3cc4c(cc3[C@@H](O[C@@H]3O[C@@H]5CO[C@@H](C)O[C@H]5[C@H](O)[C@H]3O)[C@H]3COC(=O)[C@H]23)OCO4)cc(OC)c1O [ETOPOSIDE]" reported_result=6.10
molecule=O=C/C=C/c1ccc2c(c1)O[C@@H](CO)[C@H](c1ccc(O)c(O)c1)O2 reported_result=4.41
